The reported numbers originate from the supplement of paper PMC10567573.

Parameter protein stability index: see the listing below.
B1: ZNF8 (parent)
chain: KPYTCSVCGKSFSRTTCLFLHLRT

- Variants of: B1
- TEST PROTOCOL: protein stability index of a GFP-peptide fusion (GPS, HEK-293T) (PSI 1-6); higher = more stable;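 further: lentivirally expressed fusions sorted by FACS into six bins by GFP to DsRed ratio, PSI derived from sequencing read proportions per bin multiplied by bin number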
- ASSAY CONTEXT: c terminus: a fixed tail appended
Answer with a bare number; do not write a unit.

VARIANT ID: L22I
protein stability index: 1.96

VARIANT ID: L18N
protein stability index: 2.49

VARIANT ID: V7P
protein stability index: 2.7

VARIANT ID: P2H
protein stability index: 2.5

VARIANT ID: T24A
protein stability index: 1.96

VARIANT ID: T15I
protein stability index: 2.62

VARIANT ID: T16H
protein stability index: 2.36

VARIANT ID: F12G
protein stability index: 2.27

VARIANT ID: F19I
protein stability index: 1.91

VARIANT ID: R14P
protein stability index: 2.45

Kindly consider the entry below.
Quick one: give measured protein stability index for `L20C` 2.63
